# MEASUREMENT PROTOCOL: photoluminescence quantum yield (fraction); solvent given as SMILES
# ASSAY CONTEXT: in ClCCl
# note: boundary value 0.4 maps to FALSE; photoluminescence quantum yield below it maps to TRUE

INSERT INTO assay_data (sample_smiles, class_name) VALUES
  ('CCCCn1c(-c2ccc(-c3nnc(-c4ccc(-c5nc6ccccc6n5CCCC)cc4)o3)cc2)nc2ccccc21', 'FALSE'),
  ('F[B-]1(F)n2c(-c3ccccc3)cc(-c3cccs3)c2N=C2C(c3cccs3)=CC(c3ccccc3)=[N+]21', 'TRUE'),
  ('c1ccc2c(c1)c1ccccc1c1ccccc21', 'TRUE'),
  ('CCCCN1C(=O)c2cc(Oc3ccc(C(C)(C)C)cc3)c3c4c(Oc5ccc(C(C)(C)C)cc5)cc5c6c(cc(Oc7ccc(C(C)(C)C)cc7)c(c7c(Oc8ccc(C(C)(C)C)cc8)cc(c2c37)C1=O)c64)C(=O)N(CCCC)C5=O', 'FALSE'),
  ('CCCCCCOc1cc(C=C2C(=O)c3ccccc3C2=O)c(OCCCCCC)cc1C=C1C(=O)c2ccccc2C1=O', 'FALSE'),
  ('CCCCCCCCCCCCOc1ccc(C#Cc2ccc(C#Cc3ccc(OCCCCCCCCCCCC)c(OCCCCCCCCCCCC)c3)c3nc4c5ccccc5c5ccccc5c4nc23)cc1OCCCCCCCCCCCC', 'TRUE'),
  ('CSc1cc(-c2cc3cc4c5c(c3oc2=O)CCCN5CCC4)oc(=O)c1C#N', 'FALSE'),
  ('[O-][n+]1c(/C=C/c2ccccc2)nc(Nc2ccccc2)c2c1CCCC2', 'TRUE'),
  ('COc1ccccc1C1=[N+]2C(=C(c3ccccc3)c3c4c(c(-c5ccccc5OC)n3[B-]2(F)F)C2CCC4CC2)C2=C1C1CCC2CC1', 'FALSE'),
  ('FC(F)(F)c1ccccc1B1c2ccccc2N(c2ccccc2)c2ccccc21', 'FALSE'),
  ('CCOC(=O)C1=C(C(=O)OCC)C2(c3ccccc3-c3ccccc32)[C@@H](c2ccc(Cl)cc2)C=C2c3cc(OC)c(OC)cc3CCN21', 'TRUE'),
  ('CCCCCCCCC1(CCCCCCCC)c2cc(-c3ccc(C(F)(F)F)cc3)ccc2-c2ccc(N(c3ccc(-n4c5ccccc5c5ccccc54)cc3)c3ccc4c(c3)C(CCCCCCCC)(CCCCCCCC)c3cc(-c5ccc(C(F)(F)F)cc5)ccc3-4)cc21', 'FALSE'),
  ('CC1=CC(C)=[N+]2C1=C(c1c3ccccc3c(-c3ccccc3)c3ccccc13)c1c(C)cc(C)n1[B-]2(F)F', 'TRUE');

---

# MEASUREMENT PROTOCOL: photoluminescence quantum yield (fraction); solvent given as SMILES
# ASSAY CONTEXT: in C1CCOC1
MEASUREMENT KIND: photoluminescence quantum yield

INSERT INTO assay_data (sample_smiles, measurement_kind, test_result) VALUES
  ('COc1ccc2cc([C@H](C)C(=O)O)ccc2c1', 'photoluminescence quantum yield', 0.45),
  ('[C-]#[N+]c1ccc(-c2ccc(NC)cc2)cc1', 'photoluminescence quantum yield', 0.74),
  ('Cc1cc(-c2ccc(-n3c4ccccc4c4ccccc43)cc2)nc(-c2ccc(-c3ccccc3)cc2)n1', 'photoluminescence quantum yield', 0.62),
  ('CCCCCCCCCCCCOc1cc(C(=O)Nc2ccc(-c3ccc4c(c3)C(=O)c3ccccc3-4)cc2)cc(OCCCCCCCCCCCC)c1OCCCCCCCCCCCC', 'photoluminescence quantum yield', 0.04),
  ('C(=C\N1CCCC1)/c1nc2ccccc2nc1-c1ccccc1', 'photoluminescence quantum yield', 0.445),
  ('CC(C)(C)c1ccc(-c2c(-c3ccc(-n4c5ccccc5c5ccccc54)cc3)cc(-c3ccc(-n4c5ccccc5c5ccccc54)cc3)c(-c3ccc(C(C)(C)C)cc3)c2-c2ccc(C(C)(C)C)cc2)cc1', 'photoluminescence quantum yield', 0.343),
  ('CCCCCCN(c1ccccc1)c1ccc2c(c1)C(CC)(CC)c1cc(/C=C/c3ccc(/C=C(\C#N)C(=O)O)s3)ccc1-2', 'photoluminescence quantum yield', 0.458),
  ('C(=C\c1ccc(N(c2ccccc2)c2ccccc2)cc1)/c1ccc(-c2cc(-c3ccccn3)nc(-c3ccccn3)c2)cc1', 'photoluminescence quantum yield', 0.55);

---

# MEASUREMENT PROTOCOL: photoluminescence quantum yield (fraction); solvent given as SMILES
# ASSAY CONTEXT: in CCOC(C)=O
We begin with a simple list: items and their reported photoluminescence quantum yield.
MEASUREMENT KIND: photoluminescence quantum yield

INSERT INTO assay_data (sample_smiles, measurement_kind, test_result) VALUES
  ('NNC(=O)NNN1C(=O)c2cc(S(=O)(=O)[O-])cc3c(N)c(S(=O)(=O)[O-])cc(c23)C1=O', 'photoluminescence quantum yield', 0.03),
  ('COc1ccc2c3c(cccc13)C(=O)c1ccccc1-2', 'photoluminescence quantum yield', 0.23),
  ('CCN(CC)c1ccc2cc(/C=C/C(=O)c3cc4ccc(N(CC)CC)cc4oc3=O)c(=O)oc2c1', 'photoluminescence quantum yield', 0.57),
  ('Cc1ccc(C2=C3C=CC=[N+]3[B-](F)(F)n3cccc32)cc1', 'photoluminescence quantum yield', 0.024),
  ('CN(C)c1ccc(C2=Cc3cccc[n+]3[B-](F)(F)O2)cc1', 'photoluminescence quantum yield', 0.699),
  ('CN(C)c1ccc(/C=C2\OC(=O)c3cc(N)ccc32)cc1', 'photoluminescence quantum yield', 0.37),
  ('O=S(=O)(c1ccc(-c2ccc(-c3nc4c5ccccc5c5ccccc5c4n3-c3ccccc3)cc2)cc1)c1ccc(-c2ccc(-c3nc4c5ccccc5c5ccccc5c4n3-c3ccccc3)cc2)cc1', 'photoluminescence quantum yield', 0.89),
  ('CCCCCCCCN1c2ccccc2Sc2cc(/C=C/c3ccc(N(c4ccc(/C=C/c5ccc6c(c5)Sc5ccccc5N6CCCCCCCC)cc4)c4ccc(/C=C/c5ccc(/C=C/c6ccc(N(c7ccc(/C=C/c8ccc(N(c9ccccc9)c9ccccc9)cc8)cc7)c7ccc(/C=C/c8ccc(N(c9ccccc9)c9ccccc9)cc8)cc7)cc6)c6nsnc56)cc4)cc3)ccc21', 'photoluminescence quantum yield', 0.062),
  ('CCN(CC)c1ccc2c(c1)oc(=O)c1c(C)nc3c(c(-c4ccccc4)nn3-c3ccccc3)c12', 'photoluminescence quantum yield', 0.634),
  ('Cc1ccc(C2=C3C=C(I)C=[N+]3[B-](F)(F)n3cc(I)cc32)cc1', 'photoluminescence quantum yield', 0.007),
  ('CN(C)c1ccc(C#Cc2ccc(C#N)cc2)cc1', 'photoluminescence quantum yield', 0.33),
  ('COc1ccc(N(c2ccc(OC)cc2)c2ccc(-c3ccc4c(c3)C(=O)c3ccccc3C4=O)cc2)cc1', 'photoluminescence quantum yield', 0),
  ('O=c1oc2ccccc2cc1-c1cc2ccccc2o1', 'photoluminescence quantum yield', 0.79),
  ('CCC1=C(C)C2=C(C)c3cc(I)c(I)n3[B-](F)(F)[N+]2=C1C', 'photoluminescence quantum yield', 0.15),
  ('N#C/C=C/c1ccc2ccc3cccc4ccc1c2c34', 'photoluminescence quantum yield', 0.62),
  ('O=C1c2ccccc2C(=O)c2cc(-c3ccc(N(c4ccccc4)c4ccccc4)cc3)ccc21', 'photoluminescence quantum yield', 0.0001),
  ('CN(C)c1ccc2nc(/C=C/c3cc4c5c(c3)CCCN5CCC4)c(=O)oc2c1', 'photoluminescence quantum yield', 0.39),
  ('O=C1OC(c2ccccc2)=N/C1=C\c1ccc(N(c2ccccc2)c2ccccc2)cc1', 'photoluminescence quantum yield', 0.095),
  ('CCn1c2ccccc2c2cc(-c3cc(-c4ccc5c(c4)c4ccccc4n5CC)nc(-c4ccc(C#N)cc4)n3)ccc21', 'photoluminescence quantum yield', 0.09),
  ('CCc1c(C)c2n(c1C)[B-](F)(F)[N+]1=C(NCc3ccc(OC)cc3)C(SC#N)=CC1=C2C', 'photoluminescence quantum yield', 0.9),
  ('Cc1cccc(Nc2ccccc2C(=O)O)c1C', 'photoluminescence quantum yield', 0.0032),
  ('Cc1ccc(C2=C3C=C(I)C=[N+]3[B-](F)(F)n3cccc32)cc1', 'photoluminescence quantum yield', 0.011),
  ('CCCCCCCCC1(CCCCCCCC)c2cc(C#CC#Cc3ccc(N(c4ccccc4)c4ccccc4)cc3)ccc2-c2ccc(C=O)cc21', 'photoluminescence quantum yield', 0.76),
  ('CCN(CC)c1ccc2c(c1)oc(=O)c1c(C)nc3c(c(C)nn3-c3ccccc3)c12', 'photoluminescence quantum yield', 0.733),
  ('CCCCCCN(c1ccccc1)c1ccc2c(c1)C(CC)(CC)c1cc(/C=C/c3ccc(/C=C(\C#N)C(=O)O)s3)ccc1-2', 'photoluminescence quantum yield', 0.443),
  ('O=Cc1ccc(C2=C3C=c4c(oc5ccccc45)=[N+]3[B-](F)(F)n3c2cc2c4ccccc4oc23)cc1', 'photoluminescence quantum yield', 0.39),
  ('N#Cc1ccc(/C=C2\OC(=O)c3cc(N)ccc32)cc1', 'photoluminescence quantum yield', 0.047),
  ('CCN(CC)c1ccc(/C=C/C2=[O+][B-](F)(F)Oc3c2c(=O)oc2cc(N(CC)CC)ccc32)cc1', 'photoluminescence quantum yield', 0.16),
  ('COC1=[N+]2C(=C(c3ccccc3)c3ccc(OC)n3[B-]2(F)F)C=C1', 'photoluminescence quantum yield', 0.11),
  ('C(=C\c1ccc(/C=C/c2ccc(N(c3ccccc3)c3ccccc3)cc2)c2nsnc12)/c1ccc(N(c2ccccc2)c2ccccc2)cc1', 'photoluminescence quantum yield', 0.275),
  ('N#Cc1cccc2c(N)c(-c3nn([C@H]4C[C@H](O)[C@@H](CO)O4)c4ncnc(N)c34)ccc12', 'photoluminescence quantum yield', 0.29),
  ('CCCCCCOc1ccc2oc3c(c2c1)=CC1=C(c2ccccc2C)c2cc4c5cc(OCCCCCC)ccc5oc4n2[B-](F)(F)[N+]=31', 'photoluminescence quantum yield', 0.73),
  ('COc1cccc(/C=C/c2ccccc2)c1', 'photoluminescence quantum yield', 0.18),
  ('CC1=[N+]2C(=C(c3ccc4c(c3)Cc3ccccc3-4)c3ccc(C)n3[B-]2(F)F)C=C1c1cc2n(c1)[B-](F)(F)[N+]1=CC=CC1=C2c1c(C)cc(C)cc1C', 'photoluminescence quantum yield', 0.11),
  ('CN(c1ccccc1)c1ccc(/C=C2\C(=O)c3ccccc3S2(=O)=O)cc1', 'photoluminescence quantum yield', 0.003);

Measured values drawn from the Deep4Chem optical property database for this set.
